# STUDY_TARGET: UniProtKB P97612
# Sequence (P97612 whole entry): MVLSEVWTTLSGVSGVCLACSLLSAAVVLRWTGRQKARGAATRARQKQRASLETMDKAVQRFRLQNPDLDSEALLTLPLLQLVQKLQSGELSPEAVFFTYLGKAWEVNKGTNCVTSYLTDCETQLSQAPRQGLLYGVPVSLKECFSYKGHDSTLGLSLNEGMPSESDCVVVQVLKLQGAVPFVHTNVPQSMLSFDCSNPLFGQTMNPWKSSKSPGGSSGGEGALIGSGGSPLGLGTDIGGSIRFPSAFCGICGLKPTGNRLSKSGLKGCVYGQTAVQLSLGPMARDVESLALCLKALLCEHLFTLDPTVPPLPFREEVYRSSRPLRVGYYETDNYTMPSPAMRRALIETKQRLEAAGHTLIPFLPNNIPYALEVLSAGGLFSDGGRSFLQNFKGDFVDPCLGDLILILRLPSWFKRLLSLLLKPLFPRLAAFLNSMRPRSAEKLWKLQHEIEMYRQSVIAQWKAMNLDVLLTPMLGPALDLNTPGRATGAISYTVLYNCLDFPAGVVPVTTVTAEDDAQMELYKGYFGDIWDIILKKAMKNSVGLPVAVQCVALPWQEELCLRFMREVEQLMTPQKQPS
# ASSAY_PROCEDURE: Inhibition of [14C]anandamide hydrolysis in rat brain membrane in the absence of UV irradiation
# Type: functional, cell membranes
pIC50: −log10 of the molar value.
ASSAY_ENDPOINT: pIC50

Lookup: Quick one: pIC50 of CCCCCCCC/C=C\CCCCCCCC(=O)N[C@H](Cc1ccc(O)cc1)C(=O)CI ?
Found: < 4.30

Lookup: Please report the recorded pIC50 for CCCCCCCC/C=C\CCCCCCCC(=O)N[C@@H](Cc1ccc(O)cc1)C(=O)COC(=O)c1c(Cl)cccc1Cl .
Found: < 4.30

Lookup: # query: pIC50 of entry O=C(CCCCCCC/C=C\CCOC(=O)c1ccccc1)N[C@H](CO)Cc1ccc(O)cc1
Found: < 4.30
